Test system: mice
Assay: Neuropharmacological Assay (SmartCube)
Assay type: in vivo
Details: mice, i.p. 15 min before test, most efficacious dose(s) of 3 doses
OBSERVABLE: AG: analgesic (SmartCube probability)

COMPOUND: NC[C@H]1OCCc2c1ccc1c2OCO1
TARGET UNDER TEST: mice
OBSERVED VALUE: + (LOQ≤ + <5%)
//
COMPOUND: CNC[C@H]1OCCCc2cccc(F)c21
TARGET UNDER TEST: mice
OBSERVED VALUE: + (LOQ≤ + <5%)
//
COMPOUND: CNC[C@@H]1OCCc2c1cccc2C(F)(F)F
TARGET UNDER TEST: mice
OBSERVED VALUE: + (LOQ≤ + <5%)
//
COMPOUND: CNC[C@@H]1OCCc2c(F)cccc21
TARGET UNDER TEST: mice
OBSERVED VALUE: ++ (5%≤ ++ <25%)

Task: What value of measured AG: analgesic (SmartCube probability) is listed for CNC[C@H]1OCCc2c(F)cccc21 ?
Result: ++ (5%≤ ++ <25%)

Task: Another: NC[C@H]1OCCc2c(Cl)cccc21 [Example 66, (S)-(5-chloroisochroman-1-yl)methanamine]
Result: + (LOQ≤ + <5%)

Task: Another: Cc1cccc2c1[C@@H](CN)OCC2 [Example 74, (S)-(8-methylisochroman-1-yl)methanamine]
Result: + (LOQ≤ + <5%)

---

System: mice
Experiment: Neuropharmacological Assay (SmartCube)
Assay type: in vivo
Settings: mice, i.p. 15 min before test, most efficacious dose(s) of 3 doses
OBSERVABLE: AG: analgesic (SmartCube probability)

Worked examples, 10 molecules total:
MOLECULE: CN(C)C[C@H]1OCCc2cccc(F)c21
OBSERVABLE: AG: analgesic (SmartCube probability)
OBSERVED VALUE: ++ (5%≤ ++ <25%)

MOLECULE: CNC[C@H]1OCCc2cccc(Cl)c21
OBSERVABLE: AG: analgesic (SmartCube probability)
OBSERVED VALUE: + (LOQ≤ + <5%)

MOLECULE: CNC[C@@H]1OCCc2ccc3c(c21)OCCO3
OBSERVABLE: AG: analgesic (SmartCube probability)
OBSERVED VALUE: + (LOQ≤ + <5%)

MOLECULE: CNC[C@@H]1OCCc2ccc(Cl)cc21
OBSERVABLE: AG: analgesic (SmartCube probability)
OBSERVED VALUE: ++ (5%≤ ++ <25%)

MOLECULE: CCNC[C@H]1OCCc2cccc(F)c21
OBSERVABLE: AG: analgesic (SmartCube probability)
OBSERVED VALUE: + (LOQ≤ + <5%)

MOLECULE: CNC[C@H]1OCCc2c(C)cccc21
OBSERVABLE: AG: analgesic (SmartCube probability)
OBSERVED VALUE: ++ (5%≤ ++ <25%)

MOLECULE: CNC[C@H]1OC[C@@H](C)c2ccccc21
OBSERVABLE: AG: analgesic (SmartCube probability)
OBSERVED VALUE: ++ (5%≤ ++ <25%)

MOLECULE: CNC[C@H]1OCCc2cc3c(cc21)OCO3 (stereo in doubt)
OBSERVABLE: AG: analgesic (SmartCube probability)
OBSERVED VALUE: ++ (5%≤ ++ <25%)

MOLECULE: Fc1cccc2c1[C@@H](CNC1CCC1)OCC2
OBSERVABLE: AG: analgesic (SmartCube probability)
OBSERVED VALUE: + (LOQ≤ + <5%)

MOLECULE: CNC[C@@H]1OCCc2cccc(Cl)c21
OBSERVABLE: AG: analgesic (SmartCube probability)
OBSERVED VALUE: ++ (5%≤ ++ <25%)

Task: What value of measured AG: analgesic (SmartCube probability) is listed for CNC[C@@H]1OC[C@H](O)c2cccc(F)c21 ?
Result: + (LOQ≤ + <5%)

Task: Another: CNC[C@H]1OCc2cccc(F)c21
Result: ++ (5%≤ ++ <25%)

Task: Another: CNC[C@@H]1OCCc2cc3c(cc21)OCO3 (stereo in doubt)
Result: + (LOQ≤ + <5%)

Task: Another: NC[C@@H]1OCCc2ccc3c(c21)OCO3
Result: ++ (5%≤ ++ <25%)

Task: Another: CNC[C@@H]1OCCc2cccc(C#N)c21
Result: ++ (5%≤ ++ <25%)

Task: Another: CNC[C@@H]1OCCc2ccc3c(c21)OCC3
Result: + (LOQ≤ + <5%)

Task: Another: CCNC[C@@H]1OCCc2cccc(F)c21
Result: ++ (5%≤ ++ <25%)

Task: Another: CNC[C@@H]1OCc2c(Cl)cccc21
Result: ++ (5%≤ ++ <25%)

---

Test system: mice
Assay: Neuropharmacological Assay (SmartCube)
Format: in vivo
Details: mice, i.p. 15 min before test, most efficacious dose(s) of 3 doses
OBSERVABLE: CE: cognitive enhancer (SmartCube probability)

COMPOUND: CCNC[C@H]1OCCc2cccc(F)c21 [Example 86]
OBSERVED VALUE: ++ (5%≤ ++ <25%)
--
COMPOUND: Cc1cccc2c1CCO[C@@H]2CN [Example 72, (S)-(5-methylisochroman-1-yl)methanamine]
OBSERVED VALUE: + (LOQ≤ + <5%)
--
COMPOUND: CNC[C@@H]1OCc2cccc(F)c21 [Example 69]
OBSERVED VALUE: + (LOQ≤ + <5%)
--
COMPOUND: CNC[C@H]1OCc2c(Cl)cccc21 [Example 92]
OBSERVED VALUE: ++ (5%≤ ++ <25%)
--
COMPOUND: CNC[C@@H]1OCCCc2cccc(F)c21 [Example 61]
OBSERVED VALUE: + (LOQ≤ + <5%)
--
COMPOUND: Cc1cccc2c1CCO[C@H]2CN [Example 73, (R)-(5-methylisochroman-1-yl)methanamine]
OBSERVED VALUE: ++ (5%≤ ++ <25%)

Task: What value of measured CE: cognitive enhancer (SmartCube probability) is listed for CNC[C@@H]1OCCc2ccc3c(c21)OCO3 [Example 2] ?
Result: ++ (5%≤ ++ <25%)

Task: Another: CN(C)C[C@H]1OCCc2cccc(F)c21 [Example 84]
Result: ++ (5%≤ ++ <25%)

Task: Another: NC[C@@H]1OCCc2ccc3c(c21)OCO3 [Example 8]
Result: ++ (5%≤ ++ <25%)

---

Test system: mice
Test: Neuropharmacological Assay (SmartCube)
Type: in vivo
Conditions: mice, i.p. 15 min before test, most efficacious dose(s) of 3 doses
OBSERVABLE: PS: anti-psychotic (SmartCube probability)

Worked examples, 5 molecules total:
MOLECULE: Fc1cccc2c1[C@H](CNC1CCC1)OCC2 [Example 97]
OBSERVED VALUE: ++ (5%≤ ++ <25%)

MOLECULE: CNC[C@@H]1OCCc2ccc3c(c21)OC(F)(F)O3 [Example 101]
OBSERVED VALUE: ++ (5%≤ ++ <25%)

MOLECULE: CNC[C@@H]1OC[C@@H](O)c2ccc3c(c21)OCO3 (single isomer, unassigned) [Example 111]
OBSERVED VALUE: ++ (5%≤ ++ <25%)

MOLECULE: NC[C@@H]1OCCc2cccc(F)c21 [Example 35, (R)-(8-fluoroisochroman-1-yl)methanamine]
OBSERVED VALUE: ++ (5%≤ ++ <25%)

MOLECULE: NC[C@@H]1OCCc2c(F)cccc21 [Example 29, (R)-(5-fluoroisochroman-1-yl)methanamine]
OBSERVED VALUE: + (LOQ≤ + <5%)

Task: What value of measured PS: anti-psychotic (SmartCube probability) is listed for CNC[C@@H]1OCCc2ccc3c(c21)OCO3 [Example 2] ?
Result: ++ (5%≤ ++ <25%)

Task: Another: CNC[C@@H]1OCCc2c(C#N)cccc21 [Example 47]
Result: ++ (5%≤ ++ <25%)

---

System: mice
Assay: Neuropharmacological Assay (SmartCube)
Type: in vivo
Conditions: mice, i.p. 15 min before test, most efficacious dose(s) of 3 doses
OBSERVABLE: CE: cognitive enhancer (SmartCube probability)

Worked examples, 5 molecules total:
MOLECULE: CNC[C@@H]1OCCc2cc(Cl)ccc21
OBSERVED VALUE: + (LOQ≤ + <5%)
//
MOLECULE: CNC(C)C1OCCc2ccc3c(c21)OCO3 (stereo not drawn)
OBSERVED VALUE: ++ (5%≤ ++ <25%)
//
MOLECULE: CNC[C@H]1OC[C@H](O)c2ccc3c(c21)OCO3 (single isomer, unassigned)
OBSERVED VALUE: + (LOQ≤ + <5%)
//
MOLECULE: CNC[C@@H]1OCCc2cc3c(cc21)OCO3 (stereo in doubt)
OBSERVED VALUE: + (LOQ≤ + <5%)
//
MOLECULE: Cc1cccc2c1[C@@H](CN)OCC2 [Example 74, (S)-(8-methylisochroman-1-yl)methanamine]
OBSERVED VALUE: + (LOQ≤ + <5%)

Task: What value of measured CE: cognitive enhancer (SmartCube probability) is listed for NC[C@H]1OCCc2cccc(Cl)c21 [Example 70, (S)-(8-chloroisochroman-1-yl)methanamine] ?
Result: ++ (5%≤ ++ <25%)

Task: Another: CNC[C@H]1OC[C@@H](C)c2ccccc21
Result: ++ (5%≤ ++ <25%)

Task: Another: NC[C@H]1OCCc2ccc3c(c21)OCO3
Result: ++ (5%≤ ++ <25%)

Task: Another: CNC[C@@H]1OCCc2ccc3c(c21)OC(F)(F)O3
Result: ++ (5%≤ ++ <25%)

Task: Another: CNC[C@H]1OCCc2c(F)ccc(F)c21
Result: ++ (5%≤ ++ <25%)

Task: Another: CNC[C@H]1OCCc2cc3c(cc21)OCO3 (stereo in doubt)
Result: + (LOQ≤ + <5%)

Task: Another: CN(C)C[C@@H]1OCCc2cccc(F)c21
Result: ++ (5%≤ ++ <25%)

Task: Another: CNC[C@H]1OC[C@@H](F)c2ccccc21
Result: ++ (5%≤ ++ <25%)

Task: Another: CNC[C@@H]1OCCc2ccc3c(c21)OCCO3
Result: ++ (5%≤ ++ <25%)

Task: Another: CNC[C@@H]1OC[C@@H](C)c2ccccc21
Result: ++ (5%≤ ++ <25%)

Task: Another: CNC[C@H]1OC[C@@H](O)c2cccc(F)c21
Result: + (LOQ≤ + <5%)

Task: Another: CNC[C@H]1OCCCc2cccc(F)c21
Result: + (LOQ≤ + <5%)

Task: Another: CNC[C@@H]1OCCc2c(Cl)cccc21
Result: ++ (5%≤ ++ <25%)

Task: Another: CNC[C@@H]1OCC(F)(F)c2ccccc21
Result: ++ (5%≤ ++ <25%)
